target_desc: Rap guanine nucleotide exchange factor 3 (Homo sapiens) (UniProt O95398)
Sequence (O95398 whole entry, looked up): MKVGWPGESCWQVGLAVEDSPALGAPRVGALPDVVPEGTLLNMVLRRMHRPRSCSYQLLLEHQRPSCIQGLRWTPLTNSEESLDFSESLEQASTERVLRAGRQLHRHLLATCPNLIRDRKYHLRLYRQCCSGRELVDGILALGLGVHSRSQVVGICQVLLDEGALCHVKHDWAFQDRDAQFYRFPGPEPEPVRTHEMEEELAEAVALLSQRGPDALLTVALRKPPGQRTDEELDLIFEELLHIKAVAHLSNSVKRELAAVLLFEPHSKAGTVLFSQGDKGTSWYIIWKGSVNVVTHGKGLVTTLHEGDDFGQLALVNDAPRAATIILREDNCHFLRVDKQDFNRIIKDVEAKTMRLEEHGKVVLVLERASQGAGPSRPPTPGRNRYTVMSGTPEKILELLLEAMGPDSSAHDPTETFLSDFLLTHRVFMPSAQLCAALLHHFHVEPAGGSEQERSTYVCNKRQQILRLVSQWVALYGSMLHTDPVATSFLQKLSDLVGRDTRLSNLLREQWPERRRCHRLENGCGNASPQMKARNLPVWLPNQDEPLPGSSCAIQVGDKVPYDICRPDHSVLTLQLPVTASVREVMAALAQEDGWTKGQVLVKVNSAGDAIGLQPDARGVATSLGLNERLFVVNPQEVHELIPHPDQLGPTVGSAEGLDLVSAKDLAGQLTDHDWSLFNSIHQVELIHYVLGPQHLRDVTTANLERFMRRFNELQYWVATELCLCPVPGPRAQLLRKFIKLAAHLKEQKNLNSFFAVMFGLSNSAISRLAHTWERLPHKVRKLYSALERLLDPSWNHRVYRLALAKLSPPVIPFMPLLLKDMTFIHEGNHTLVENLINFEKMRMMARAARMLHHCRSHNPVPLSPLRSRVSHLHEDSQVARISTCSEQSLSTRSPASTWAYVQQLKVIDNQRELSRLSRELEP
assay_info: Counterscreen qHTS for antagonist of cAMP-regulated guanine nucleotide exchange factor 3 (EPAC1) (AID 1645888);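 also: fluorescence loss as bound BODIPY-GDP is released from Rap1B; % of control where 0% means no effect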
assay_conditions: Rap1B-BODIPY-GDP nucleotide exchange, fluorescence; series mostly up to 154 µM
Results filed as inconclusive are left out. Active and inactive are the calls of the source. Calls follow the shape of the dose curve; as a rule, active = well fitted inhibition curve with a large enough effect; inconclusive = small, poorly fitted or top-dose-only effect; inactive = no such curve, though single readings can be large or run the other way.
quantity: activity change, negative = inhibition

Cc1ccc(/C=N/Nc2cc(C)nc(NCc3ccccc3)n2)cc1    inactive
O=C(Nc1cc(S(=O)(=O)Nc2ccc(Cl)cc2)ccc1O)c1ccc(S(=O)(=O)N2CCCCCC2)cc1    inactive
COc1ccc(OC)c(NC(=O)C2(C)CCN2Cc2ccsc2)c1 (centres undefined)    inactive
COc1cc2c(c(OC)c1OC)-c1c(cc(OC)c(OC)c1OC)C[C@H](C)[C@H](C)C2    -11.3% [at 30.8 µM] (inactive)
COc1ccc(Cl)cc1NC(=O)CN(C)C(=O)c1cc(-c2ccncc2)nc2ccccc12    inactive

Need activity change, negative = inhibition, item CCCS(=O)(=O)NC(=O)C1(C)CCN(C(=O)c2cccc(OC(F)(F)F)c2)C1 (centres undefined)
inactive

Follow-up item: Cc1ccc(Nc2nnc(-c3ccc(C)c(S(N)(=O)=O)c3)c3ccccc23)cc1
inactive

Follow-up item: COc1ccc(S(=O)(=O)Nc2ccc(F)cc2)c(C)c1C
inactive

Follow-up item: N=c1c(S(=O)(=O)c2ccc(Br)cc2)cc2c(=O)n3ccccc3nc2n1Cc1ccccc1
-6.58% [at 30.8 µM] (inactive)

* * *

target_desc: Glucocorticoid receptor (Homo sapiens) (UniProt P04150)
Sequence (P04150 whole entry, looked up): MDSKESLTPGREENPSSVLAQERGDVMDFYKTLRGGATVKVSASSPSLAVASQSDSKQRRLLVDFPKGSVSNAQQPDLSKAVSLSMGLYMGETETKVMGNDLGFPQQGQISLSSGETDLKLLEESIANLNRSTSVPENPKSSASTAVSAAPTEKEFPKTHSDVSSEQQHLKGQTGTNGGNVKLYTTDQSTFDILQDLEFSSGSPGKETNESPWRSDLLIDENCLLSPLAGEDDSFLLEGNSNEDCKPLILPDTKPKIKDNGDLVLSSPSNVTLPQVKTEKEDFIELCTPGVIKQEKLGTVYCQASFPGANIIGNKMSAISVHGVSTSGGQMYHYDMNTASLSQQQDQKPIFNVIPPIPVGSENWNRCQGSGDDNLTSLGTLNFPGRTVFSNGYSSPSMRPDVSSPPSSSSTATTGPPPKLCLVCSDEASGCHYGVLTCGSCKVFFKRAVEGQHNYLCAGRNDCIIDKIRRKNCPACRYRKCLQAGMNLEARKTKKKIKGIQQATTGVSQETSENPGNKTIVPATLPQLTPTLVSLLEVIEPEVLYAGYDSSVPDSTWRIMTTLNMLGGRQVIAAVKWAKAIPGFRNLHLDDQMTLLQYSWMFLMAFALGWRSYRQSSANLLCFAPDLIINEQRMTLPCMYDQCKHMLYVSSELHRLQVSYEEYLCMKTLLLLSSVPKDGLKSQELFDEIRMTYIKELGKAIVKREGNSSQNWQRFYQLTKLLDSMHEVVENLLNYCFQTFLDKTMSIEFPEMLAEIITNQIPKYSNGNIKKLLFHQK
assay_info: GR-GFP Redistribution (AID 450); also: potency is read from the fitted curve at half-maximal effect
assay_conditions: U2OS GR-GFP nuclear translocation, laser cytometry, 2 h
The source made the active and inactive calls.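 The calls were made as follows: active = compounds whose dose series gives a full or clear partial fitted curve of increased nuclear translocation; inconclusive = weak partial curve or effect only at the top dose; inactive = no dose-dependent translocation response.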
Provide the reported Potency of each item.

Need Potency, item COc1ccc2[nH]cc(CCNc3ncnc4ccc(-c5cccc(C#N)c5)cc34)c2c1
> 46 µM (inactive)

Follow-up item: COc1ncc2nc(CCc3ccccc3)c(=O)n(-c3ccccc3)c2n1
> 9.22 µM (inactive)

Follow-up item: c1cn(-c2ncnc3ccc(-c4ccoc4)cc23)cn1
> 46 µM (inactive)

* * *

target_desc: Tumor susceptibility gene 101 protein (Homo sapiens)
assay_info: qHTS Assay for Iinhibitors of HIV-1 Budding by Blocking the Interaction of PTAP/TSG101: Hit Validation (AID 651600); also: potency is read from the fitted curve at half-maximal effect; nearly all actives have a fitted effect of over 70% in size
assay_conditions: PTAP peptide/TSG101 UEV interaction, biochemical assay; series mostly up to 57.5 µM
Records with an inconclusive call do not appear. Active and inactive are the calls of the source. Calls follow the shape of the dose curve; as a rule, active = well fitted inhibition curve with a large enough effect; inconclusive = small, poorly fitted or top-dose-only effect; inactive = no such curve, though single readings can be large or run the other way.
quantity: Potency

Need Potency, item CCc1ccc[n+](-c2[nH]c(=O)sc2/C=N/NC([S-])=Nc2ccccc2)c1
14.6 µM (active)

Follow-up item: O=C1/C(=C/c2ccco2)Oc2c1ccc(O)c2CN1CCCCC1
32.6 µM (active)

* * *

target_desc: Rap guanine nucleotide exchange factor 3 (Homo sapiens) (UniProt O95398)
assay_info: Counterscreen qHTS for antagonist of cAMP-regulated guanine nucleotide exchange factor 3 (EPAC1) (AID 1645888);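 also: fluorescence loss as bound BODIPY-GDP is released from Rap1B; % of control where 0% means no effect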
assay_conditions: Rap1B-BODIPY-GDP nucleotide exchange, fluorescence; series mostly up to 154 µM
Results filed as inconclusive are left out. Calls of active or inactive are those of the source. The call rests on the fitted dose curve; in most records, active means well fitted inhibition curve with a large enough effect; inconclusive means small, poorly fitted or top-dose-only effect; inactive means no such curve, though single readings can be large or run the other way.
quantity: activity change, negative = inhibition

COc1ccc(C2N(c3ccc(Cl)cc3)N=C(C(C)=O)N(C)N2C(C)=O)cc1 (stereo unspecified)    -11.6% [at 30.8 µM] (inactive)
Nc1ccc2ccc(O)cc2c1    -3.65% [at 30.8 µM] (inactive)
O=C(c1ccco1)N1CCn2cccc2C1c1ccccc1 (stereo unspecified)    inactive
COc1ccc(-c2noc(CN(C(=O)c3c(-c4ccccc4Cl)noc3C)C(C)C)n2)cc1    inactive
Cc1ccc(S(=O)(=O)N2CC(C(=O)O)=CC[C@H]2c2ccc(Cl)cc2)cc1    inactive
CCOc1cc(-c2ccc(OC(=O)c3ccc(OC)cc3)c(OC)c2)cc(=O)c2c(C)oc(C)c12    inactive
O=C(c1ccccc1)c1cccc2ccccc12    -2.88% [at 30.8 µM] (inactive)
N#Cc1c(C(F)(F)F)cc(-c2ccccc2)nc1SCc1nc(N)nc(N2CCOCC2)n1    inactive

Need activity change, negative = inhibition, item CCN(CC)c1ccc2cc(C(N)=O)c(=N)oc2c1
-1.22% [at 30.8 µM] (inactive)

Follow-up item: C=CCn1c(=O)/c(=C/c2ccc(C)o2)s/c1=C(/C#N)C(=O)c1ccccc1
-7.69% [at 30.8 µM] (inactive)

Follow-up item: Cc1cccc(N2CCCC2=Nc2ccc(Br)cc2C#N)c1
inactive

* * *

target_desc: Cytochrome P450 3A4 (Homo sapiens) (UniProt P08684)
Sequence (P08684 whole entry, looked up): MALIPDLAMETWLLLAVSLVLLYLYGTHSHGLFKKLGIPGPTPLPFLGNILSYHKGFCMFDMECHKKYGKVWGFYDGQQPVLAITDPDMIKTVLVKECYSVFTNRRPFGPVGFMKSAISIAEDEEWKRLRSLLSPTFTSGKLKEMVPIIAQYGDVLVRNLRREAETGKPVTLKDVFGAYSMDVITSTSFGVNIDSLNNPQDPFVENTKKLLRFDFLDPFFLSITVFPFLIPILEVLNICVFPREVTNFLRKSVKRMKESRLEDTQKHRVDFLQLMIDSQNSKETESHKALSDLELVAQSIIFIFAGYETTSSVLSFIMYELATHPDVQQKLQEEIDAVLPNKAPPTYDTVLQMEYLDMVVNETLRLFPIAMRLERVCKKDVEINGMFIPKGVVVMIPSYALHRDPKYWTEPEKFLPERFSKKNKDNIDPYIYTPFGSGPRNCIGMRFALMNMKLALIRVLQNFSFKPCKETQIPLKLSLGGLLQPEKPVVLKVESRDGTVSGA
assay_info: qHTS for inhibitors of CYP3A4 against the NCATS DSHEA and TCM libraries (AID 1919971); also: potency is read from the fitted curve at half-maximal effect
assay_conditions: recombinant CYP3A4 enzyme activity, luminescence qHTS; series mostly up to 34.1 µM
Records with an inconclusive call do not appear. Activity calls are given as the source filed them. Calls come from the whole dose curve; as a rule, active = well fitted inhibition curve with a large enough effect; inconclusive = small, poorly fitted or top-dose-only effect; inactive = no such curve, though single readings can be large or run the other way.
quantity: Potency

// worked examples, Potency included
C=CC(C)(CCC=C(C)C)OC(C)=O (configuration not stated)    inactive
Cc1ccc(O)c(O)c1    inactive
CC1=CC[C@H](C(C)C)C=C1    35.5 µM (active)
C=CCc1ccc(OC)c(OC)c1    inactive

I'm curious: which Potency was measured for COc1cc(-c2oc3cc(O)cc(O)c3c(=O)c2O)ccc1O tested on Cytochrome P450 3A4 (Homo sapiens) (UniProt P08684)?
11.2 µM (active)

Follow-up item: CC[C@H](CC[C@@H](C)[C@H]1CCC2C3CCC4C[C@@H](O)CC[C@]4(C)C3CC[C@@]21C)C(C)C (some centres not stated)
inactive

Follow-up item: O=C(/C=C/c1ccc(O)c(O)c1)OC1[C@H](O)CC(O)(C(=O)O)C[C@@H]1O (some centres not stated)
inactive

* * *

assay_info: qHTS for differential inhibitors of proliferation of Plasmodium falciparum line Dd2 (AID 1882); also: nearly all actives have a fitted effect of over 65% in size
assay_conditions: Plasmodium falciparum Dd2 proliferation inhibition; series mostly up to 28.7 µM
Inconclusive results are not listed. The source made the active and inactive calls. The call rests on the fitted dose curve; in most records, active means well fitted inhibition curve with a large enough effect; inconclusive means small, poorly fitted or top-dose-only effect; inactive means flat fitted curve, though single readings scatter.
Use one of these outcomes when replying: active, inactive

What outcome does the record of this test show for COc1cc2c(cc1O)CCC1C2CC[C@]2(C)[C@@H](O)CC[C@@H]12 (stereo partly drawn) ?
inactive

Follow-up item: C[C@H]1c2cccc(O)c2C(O)=C2C(=O)[C@]3(O)C(O)=C(C(N)=O)C(=O)C(N(C)C)[C@@H]3[C@@H](O)C21 (stereo partly drawn)
active

Follow-up item: CC[C@H](C)C(=O)O[C@H]1CCC=C2C=C[C@H](C)[C@H](CC[C@@H]3C[C@H](O)CC(=O)O3)C21 (stereo partly drawn)
inactive

Follow-up item: C#C[C@]1(O)CC[C@H]2C3CCC4=Cc5oncc5CC4(C)C3CCC21C (stereo partly drawn)
inactive

Follow-up item: Cc1c(C)c2c(c(C)c1O)CCC(C)(CN1CCN(c3cc(N4CCCC4)nc(N4CCCC4)n3)CC1)O2 (stereo not drawn)
active

Follow-up item: C[C@]12C[C@H](O)C3[C@@H](CCC4=CC(=O)CC[C@@]43C)[C@@H]1CC[C@@H]2C(=O)CO (stereo partly drawn)
inactive

Follow-up item: Nc1nc(Cl)nc2c1ncn2[C@@H]1O[C@H](COP(=O)(O)OP(=O)(O)OP(=O)(O)O)[C@H](O)[C@H]1O
inactive

Follow-up item: CN1CCN(CC/C=C2/c3ccccc3Sc3ccc(S(=O)(=O)N(C)C)cc32)CC1
inactive

* * *

target_desc: Rap guanine nucleotide exchange factor 3 (Homo sapiens)
assay_info: Counterscreen qHTS for antagonist of cAMP-regulated guanine nucleotide exchange factor 3 (EPAC1) (AID 1645888);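 also: fluorescence loss as bound BODIPY-GDP is released from Rap1B; % of control where 0% means no effect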
assay_conditions: Rap1B-BODIPY-GDP nucleotide exchange, fluorescence; series mostly up to 154 µM
Description: Assay Provider (PI): Xiaodong Cheng Ph.D. The University of Texas Medical Branch, […], TX MLPCN Grant: NS066510 In multi-cellular eukaryotic organisms, the effects of cAMP are transduced by two ubiquitously-expressed intracellular cAMP receptors, the classic protein kinase A/cAMP-dependent protein kinase (PKA/cAPK) and the more recently discovered exchange protein directly activated by cAMP/cAMP-regulated guanine nucleotide exchange factor (EPAC/cAMP-GEF). […]
Results filed as inconclusive are left out. Calls of active or inactive are those of the source. Calls come from the whole dose curve; as a rule, active = well fitted inhibition curve with a large enough effect; inconclusive = small, poorly fitted or top-dose-only effect; inactive = no such curve, though single readings can be large or run the other way.
quantity: activity change, negative = inhibition

// worked examples, activity change, negative = inhibition included
COCCCn1c(=O)/c(=C\c2ccccc2OC(C)C)s/c1=C(/C#N)C(=O)Nc1ccc(C(=O)O)cc1    38.7% [at 30.8 µM] (inactive)
Cc1ccc2c(CC(=O)OCc3cc(=O)n4c(n3)sc3ccccc34)coc2c1    inactive
CC1=Nc2ccccc2/C1=C/c1sc(=N)n(-c2nccs2)c1O    inactive
CC(C)C[C@H](NC(=O)C1(c2ccccc2)CCN(C(=O)OC(C)(C)C)CC1)C(=O)N1CCC[C@H]1C(=O)O    inactive
O=C(Nc1ccccc1C(=O)Nc1nnc(C(F)(F)F)s1)c1ccccc1Cl    inactive
COc1ccc(N=Cc2c(O)ccc3ccccc23)cc1    17.7% [at 30.8 µM] (inactive)
O=C(O)c1ccccc1NS(=O)(=O)c1ccc(NN=Cc2ccccc2F)c([N+](=O)[O-])c1    -10.7% [at 30.8 µM] (inactive)
Cc1ccc(C)c(-c2ccc(=O)n(Cc3ccc(F)cc3Cl)n2)c1    inactive
COc1ccc(S(=O)(=O)/N=C2\C=C(NS(=O)(=O)c3ccccc3)C(=O)c3ccccc32)cc1    inactive
COc1ccc2nc3ccccc3nc2c1NC(=O)c1ccc(Cl)cc1Cl    inactive

Need activity change, negative = inhibition, item O=C(O)c1ccc(/C=N/NC(=O)c2cc(-c3ccc4c5c(cccc35)CC4)n[nH]2)cc1
inactive

Follow-up item: CC1(NC(=O)CCc2nc3sc4c(c3c(=O)[nH]2)CCCC4)CCS(=O)(=O)C1 (stereo not drawn)
-17% [at 30.8 µM] (inactive)

Follow-up item: O=C1CC(c2c(F)cccc2Cl)c2c(ccc3ccccc23)N1 (stereo not drawn)
inactive

Follow-up item: Cc1ccc(Nc2cc(C)nc3c(C)ccc([N+](=O)[O-])c23)cc1
4.53% [at 30.8 µM] (inactive)

Follow-up item: Cc1cc(N(CCO)Cc2ccccc2)n2nc(-c3ccc(C(C)(C)C)cc3)nc2n1
inactive

Follow-up item: N#Cc1c(-c2ccc(F)cc2)cc(-c2ccccc2)nc1SCC(=O)NCC(=O)O
inactive

Follow-up item: O=c1c(/C=C(\O)c2ccc(F)cc2)nc2ccccc2n1-c1ccccc1
inactive

Follow-up item: COc1ccccc1[C@@]1(C)ON(c2ccccc2C(F)(F)F)C1=O
inactive

Follow-up item: C[C@@H]1CC=C[C@@H]2[C@H]1C(=O)N(Cc1ccccc1)[C@H]2c1ccccc1Br
inactive

Follow-up item: CCOC(=O)c1cc2c(ccn2C)n1CC(=O)N1CCN(c2cccc(C(F)(F)F)c2)CC1
12.9% [at 30.8 µM] (inactive)

Follow-up item: CC(=O)c1cccc(NC2c3ccccc3C(=O)N2Cc2ccc3c(c2)OCO3)c1 (stereo not drawn)
inactive

Follow-up item: N=C1/C(=C\c2coc3ccc(O)cc3c2=O)C(=O)N=C2SC=CN12
inactive
